- EXPERIMENT SUMMARY: P-glycoprotein substrates identified in KB-8-5-11 adenocarcinoma cell line, qHTS therapeutic library screen (AID 1346987); also: nearly all actives have a fitted effect of over 65% in size
- ASSAY CONDITIONS: KB-8-5-11 (P-gp overexpressing) viability, CellTiter-Glo, 72 h; series mostly up to 44.5 µM
Records with an inconclusive call do not appear. Activity calls are given as the source filed them. Calls follow the shape of the dose curve; as a rule, active = well fitted inhibition curve with a large enough effect; inconclusive = small, poorly fitted or top-dose-only effect; inactive = flat fitted curve, though single readings scatter.
Respond with a class label; see t for active, f for inactive

Reference set, count: 3
CNCC[C@H](Oc1cccc2ccccc12)c1cccs1 :: f
CCN(C)C(=O)Oc1cccc([C@H](C)N(C)C)c1 :: f
CCN1CCCC1CNC(=O)c1cc(S(N)(=O)=O)ccc1OC (stereo unspecified) :: f

Entry CCCc1cc(C(N)=S)ccn1 : call = ?
f

Entry CN1CCCC(n2nc(Cc3ccc(Cl)cc3)c3ccccc3c2=O)CC1 (stereo unspecified) : call = ?
f

Entry CCn1cc(C(=O)O)c(=O)c2cc(F)c(N3CCNCC3)nc21 : call = ?
f
